Data credit: patent US20240409645A1

Biological target: T1, human IL-2Rβ (human, UniProt P14784 27-240, limits assumed)
T1 construct: recombinant protein, coated or immobilised; also called hu IL-2R; IL-2R beta
T1 sequence: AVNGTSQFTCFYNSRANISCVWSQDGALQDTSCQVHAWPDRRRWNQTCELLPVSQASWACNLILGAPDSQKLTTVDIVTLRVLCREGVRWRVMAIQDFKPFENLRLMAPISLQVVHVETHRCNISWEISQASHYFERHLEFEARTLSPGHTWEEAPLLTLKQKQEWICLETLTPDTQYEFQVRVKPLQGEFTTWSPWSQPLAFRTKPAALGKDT
Test: P.E. ELISA, coated protein
ASSAY READOUT: P.E. binding ELISA OD (OD450 nm)
Output spec: scalar in OD450 nm, unitless text.

{"BINDER": "FJ1427 P035MP02D10 (VHH, soluble VHH in periplasmic extract; also called clone nr) VHH: EVQLVESGGGLVQAGGSLRLSCAASGRTFSSDAKAWFRQAPGKEREFVAAITWAGRGTDYADSVKDRFTITRDNAKNMVYLQMSSLKPEDTAVYYCALNPTGVIGPGFRNSNRYDYWGQGTQVTVAS", "MEASUREMENT UNIT": "OD450 nm", "P.E. binding ELISA OD": 0.557}
{"BINDER": "FJ1427_P035MP03F08 (VHH, soluble VHH in periplasmic extract; also called 19-MP03F08; clone nr) VHH: EVQLVESGGGLVQTGGSLRLSCAASGGTFSRDAMAWFRQVPGKEREFVALISWSGATTNYADSVKGRFAISRDNGKNTVYLQMNRLKPADTAIYYCAADRRPMGSRSYFEPTEYDDWGQGTQVTVSS", "MEASUREMENT UNIT": "OD450 nm", "P.E. binding ELISA OD": 0.245}
{"BINDER": "FJ1427_P035MP03C03 (VHH, soluble VHH in periplasmic extract; also called 18-MP03C03; clone nr) VHH: QVQLVESGGGLVQPGGSLRLSCAISGGTLDSYGIGWVRQAPGKQREGVSCMSRSDDRTYYADSVKGRFTISKDSAKNTVYLQMTSLKPEDTAVYYCAAVDAYGCSLVQPTTYDFWGLGTQVTVSS", "MEASUREMENT UNIT": "OD450 nm", "P.E. binding ELISA OD": 0.405}
{"BINDER": "FJ1427_P035MP02F09 (VHH, soluble VHH in periplasmic extract; also called clone nr) VHH: EVQLVESGGGLVQAGGSLRLSCAASGDVFVRYTMAWFRQAPGKEREFVASVTDSGRTTDYVDSVKGRFTVSRDNAKNTVYLQMNNLKPEDTAVYYCAANTDYFQIRSLEFNTWGQGTQVTVSS", "MEASUREMENT UNIT": "OD450 nm", "P.E. binding ELISA OD": 1.47}
{"BINDER": "FJ1427_P035MP02A02 (VHH, soluble VHH in periplasmic extract; also called clone nr) VHH: QVQLVESGGGLVQPGGSLRLSCAASGFTFDNYAMTWVRQAPGKGLEWVSSITGAGRGTHYADSVKGRFTISRDNAKNTLYLQVNSLKPEDTAVYYCARYSSSTYYPTTPVRGTDYRGQGTQVTVSS", "MEASUREMENT UNIT": "OD450 nm", "P.E. binding ELISA OD": 0.223}

Challenge: Identify measured P.E. binding ELISA OD associated with FJ1427_P035MP02F10 (VHH, soluble VHH in periplasmic extract; also called clone nr) VHH: EVQLVESGGGLVQAGGSLRLSCVVSGDVFVRYTMAWFRQAPGKEREFVAVVTDSGRTTEYVDSVKGRFTVSRDNAKNTVYLQMNNLKPEDTAVYYCAANTDYFQIRSVDNNAWGQGTQVTVSS
Response given: 0.595

Challenge: Write down P.E. binding ELISA OD measured for item FJ1427_P035MP02B05 (VHH, soluble VHH in periplasmic extract; also called clone nr; 130) VHH: EVQLVESGGGLVQTGGSLRLSCAASGSQFINDVMGWYRQVPGKQRELVADMDDTGSTKYADSVKGRFTILRDSVKNTAYLQMSNLKPEDTGVYYCKAGLWIKGRHFDYWGQGTQVTVSS
Response given: 0.553

Challenge: Give the measured P.E. binding ELISA OD for FJ1427_P035MP02A06 (VHH, soluble VHH in periplasmic extract; also called clone nr) VHH: QVQLQESGGGLVQAGGSLRLSCAASGGTFSSYAMGWFRQAPGKEREFVAATTRGGGRTMYAVSTEGRFTCSRDNDKNTVYLLMNSLKPKDTAVYYCAAMTSYYSGTYYPDSSDFDIWGQGTQVTVSS
Response given: 2.55

Challenge: Give P.E. binding ELISA OD for the following binder: FJ1427 P035MP02D02 (VHH, soluble VHH in periplasmic extract; also called clone nr) VHH: QVQLVESGGGLVQVGGSLSVSCAASGRSFDSITMAYFRQAPGNEREFIAGINFSGSRTAYGDSVKGRFTISRDNAKNTVFLQMNSLNPEDTAVYYCAASPRGFYGPGHALYDYWGQGTQVTVSS
Response given: 0.831

Challenge: Give recorded P.E. binding ELISA OD. FJ1427 P035MP02C01 (VHH, soluble VHH in periplasmic extract; also called clone nr; 99) VHH: QVQLVESGGGLVQPGGSLGLSCAASGFTFDNYAMSWVRQAPGKGLEWVSSITGAGRGTHYADSVKGRFTISRDNAKNTLYLQMNSLKPEDTAVYYCAKYSSSTYYPPTPARGTDYRGPGTQVTVSS
Response given: 0.7

Challenge: Respond only with P.E. binding ELISA OD recorded for FJ1427 P035MP06E05 (VHH, soluble VHH in periplasmic extract; also called 24-MP06E05; clone nr; 517) VHH: QVQLVESGGELVQGGASLRLSCAASGRTFSNANMAWFRQAPEKEREFVALITWSSGSTLYADSVKGRFTISRDNARKMVYLQMNSLKPEDTAVYYCAADGPPYSGTYYRYDTYDYWGQGTQVTVSS
Response given: 0.355

Challenge: State its P.E. binding ELISA OD for this binder: FJ1427 P035MP02H04 (VHH, soluble VHH in periplasmic extract; also called clone nr) VHH: QVQLVESGGGLVQAGDSLRLSCATSGLTFSSYALGWFRQAPGKKREFVAATTRGGGRTMYAVSTEGRFTCSRDNDKNTVYLLMNSLKPKDTAVYYCAAMTSYYSGTYYPDSSDFDIWGQGTQVTVSS
Response given: 0.376

Challenge: Supply recorded P.E. binding ELISA OD for FJ1427 P035MP02C03 (VHH, soluble VHH in periplasmic extract; also called 14-MP02C03; clone nr) VHH: EVQLVESGGGLVQTGGSLRLSCAASGSQFINDVMGWYRQVPGKQRELVADMDDTGSTEYADSVKGRFTILRDSVKNTAYLQMSNLKPEDTGVYYCKAGLWIKGRHFDYWGQGTQVTVSS here.
Response given: 0.183

Challenge: Retrieve P.E. binding ELISA OD measured for FJ1427_P035MP02G07 (VHH, soluble VHH in periplasmic extract; also called clone nr) VHH: QVQLVESGGGLVQAGGSLRLSCAVSGDVFVRYTMAWFRQAPGKEREFVASVTDSGRTTEYVDSVKGRFTVSRDNAKNTAYLQMNNLKPEDTAVYYCAANTDYFQIRSLDLNTWGQGTQVTVSS and print it.
Response given: 0.636

Challenge: Consider the binder FJ1427 P035MP02F07 (VHH, soluble VHH in periplasmic extract; also called clone nr; 150) VHH: QVQLVESGGGLVQAGGSLRLSCAASGDVFVRYTMAWFRQAPGKEREFVASVTDSGRTTDYVDSVKGRFTVSRDNAKNTVYLQMNNLKPEDTARYYCAANTDYFQIRSLDANTWGQGTQVTVSS . State its measured P.E. binding ELISA OD.
Response given: 0.848
